Origin of the recorded values: ChEMBL document CHEMBL2218924

- Experimental target: cGMP-dependent protein kinase 1 (Homo sapiens)
- Condition notes: at 10 µM
Measure name: residual activity (%)
Entry rule: numbers only, all in %.

Some solved cases for reference:
{"columns": ["Molecule", "Endpoint result"],
 "data": [
  ["COc1ccc2c(c[n+](C)c3c4cc5c(cc4ccc23)OCO5)c1OC", 87],
  ["CCn1cnc2c(Nc3cccc(Cl)c3)nc(N[C@@H]3CCCC[C@@H]3N)nc21", 70],
  ["O=[N+]([O-])/C=C/c1ccc2c(c1)OCO2", 90],
  ["O=C1Nc2ccc3ncsc3c2/C1=C/c1c[nH]cn1", 1]
]}

Would you kindly look at the next entry?
Req: Determine reported residual activity for `c1cc(-c2cnn3cc(-c4ccc(OCCN5CCCCC5)cc4)cnc23)ccn1` ; test system: cGMP-dependent protein kinase 1 (Homo sapiens).
Resp: 12
